Target: UniProt P56088
Sequence (P56088 whole entry): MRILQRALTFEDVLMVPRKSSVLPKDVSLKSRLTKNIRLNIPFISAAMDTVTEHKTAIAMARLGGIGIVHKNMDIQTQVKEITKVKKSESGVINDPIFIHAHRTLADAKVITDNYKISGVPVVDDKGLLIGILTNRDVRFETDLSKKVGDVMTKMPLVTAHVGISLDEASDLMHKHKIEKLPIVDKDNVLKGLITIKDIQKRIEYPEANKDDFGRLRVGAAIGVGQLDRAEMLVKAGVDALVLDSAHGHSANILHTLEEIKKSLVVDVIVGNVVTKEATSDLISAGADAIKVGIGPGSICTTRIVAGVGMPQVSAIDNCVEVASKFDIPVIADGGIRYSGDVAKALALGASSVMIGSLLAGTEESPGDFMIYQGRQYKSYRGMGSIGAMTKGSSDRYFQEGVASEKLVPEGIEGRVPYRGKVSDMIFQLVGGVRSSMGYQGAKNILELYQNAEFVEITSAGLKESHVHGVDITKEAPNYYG
Experiment: fluorescence assay of NADH formation, […] HpIMPDH
Type: biochemical
IC50 reference

{"columns": ["STRUCTURE_SMILES", "VALUE_UNITS", "IC50"],
 "data": [
  ["COc1c2occc2cc2ccc(=O)oc12", "nM", 2800],
  ["COc1cc(OC)c2ccc(=O)oc2c1", "nM", 2400]
]}
